system: HCV replicon with a R155K mutation in a 1a-H77 background; experiment: transient replicon assay, R155K mutation in 1a-H77 background; assay type: cell-based, hepatitis C virus (genotype 1a-H77); conditions: Hepatitis C virus, read-out: EC50 in a transient replicon assay with a R155K mutation in a 1a-H77 background

{"compound": "CC(C)(C)OC(=O)N[C@H]1CCCCC/C=C\\[C@@H]2C[C@@]2(C(=O)NS(=O)(=O)C2(C)CC2)NC(=O)[C@@H]2C[C@@H](Oc3nc4c(F)cccc4nc3C(F)(F)F)CN2C1=O", "EC50": "< 1 nM"}
{"compound": "Cc1cc(C(=O)N[C@H]2CCCCC/C=C\\[C@@H]3C[C@@]3(C(=O)NS(=O)(=O)C3CC3)NC(=O)[C@@H]3C[C@@H](Oc4nc5c(F)cccc5nc4C(F)(F)F)CN3C2=O)no1", "EC50": "< 1 nM"}
{"compound": "CC(C)(C)OC(=O)N[C@H]1CCCCC/C=C\\[C@@H]2C[C@@]2(C(=O)NS(=O)(=O)C2CC2)NC(=O)[C@@H]2C[C@@H](Oc3nc4cc(F)ccc4nc3C(C)(F)F)CN2C1=O", "EC50": "< 1 nM"}
{"compound": "Cc1cc(C(=O)N[C@H]2CCCCC/C=C\\[C@@H]3C[C@@]3(C(=O)NS(=O)(=O)C3CC3)NC(=O)[C@@H]3C[C@@H](Oc4nc5ccccc5nc4C(C)(F)F)CN3C2=O)no1", "EC50": "< 1 nM"}
{"compound": "CC(C)(C)OC(=O)N[C@H]1CCCCC/C=C\\[C@@H]2C[C@@]2(C(=O)NS(=O)(=O)C2(C)CC2)NC(=O)[C@@H]2C[C@@H](Oc3nc4cc(F)ccc4nc3C(C)(F)F)CN2C1=O", "EC50": "1 to 10 nM"}
{"compound": "Cc1nc2c(Br)cc(F)cc2nc1O[C@@H]1C[C@H]2C(=O)N[C@]3(C(=O)NS(=O)(=O)C4(C)CC4)C[C@H]3/C=C\\CCCCC[C@H](NC(=O)c3noc(C)c3C)C(=O)N2C1", "EC50": "< 1 nM"}
{"compound": "Cn1ccc(C(=O)N[C@H]2CCCCC/C=C\\[C@@H]3C[C@@]3(C(=O)NS(=O)(=O)C3CC3)NC(=O)[C@@H]3C[C@@H](Oc4nc5ccccc5nc4C(F)(F)F)CN3C2=O)n1", "EC50": "10 to 25 nM"}
{"compound": "CC(C)(C)OC(=O)N[C@H]1CCCCC/C=C\\[C@@H]2C[C@@]2(C(=O)NS(=O)(=O)C2(C)CC2)NC(=O)[C@@H]2C[C@@H](Oc3nc4cc(F)ccc4nc3C(F)(F)F)CN2C1=O", "EC50": "< 1 nM"}
{"compound": "CC(F)(F)c1nc2ccccc2nc1O[C@@H]1C[C@H]2C(=O)N[C@]3(C(=O)NS(=O)(=O)C4(C)CC4)C[C@H]3/C=C\\CCCCC[C@H](NC(=O)c3ccon3)C(=O)N2C1", "EC50": "< 1 nM"}
